- Tested on: K. pneumoniae MP-546
- procedureText: Broth dilution MIC determination (CLSI), K. pneumoniae MP-546
- Type: cell-based
- experimentalParameters: Klebsiella pneumoniae, MP546; strain MP-546, broth dilution
MIC values by entry

# count of solved cases: 4
compound: CO[C@]1(C)C[C@@H](C)CN(C)[C@H](c2ccccc2)COC(=O)C(C)(C)C(=O)[C@H](C)[C@H]1O[C@@H]1O[C@H](C)C[C@H](N(C)C)[C@H]1O
measured: > 32 µg/mL

compound: CO[C@]1(C)C[C@@H](C)CN(C)[C@H](C2CN(C(=O)CNC(C)(C)C)C2)COC(=O)C(C)(C)C(=O)[C@H](C)[C@H]1O[C@@H]1O[C@H](C)C[C@H](N(C)C)[C@H]1O
measured: < 4 µg/mL

compound: CO[C@]1(C)C[C@@H](C)CN(C)[C@H](C2CCN(CC(F)(F)F)CC2)COC(=O)C(C)(C)C(=O)[C@H](C)[C@H]1O[C@@H]1O[C@H](C)C[C@H](N(C)C)[C@H]1O
measured: > 32 µg/mL

compound: CO[C@]1(C)C[C@@H](C)CN(C)[C@H]([C@@H]2CCN(CC(C)C)C2)COC(=O)C(C)(C)C(=O)[C@H](C)[C@H]1O[C@@H]1O[C@H](C)C[C@H](N(C)C)[C@H]1O
measured: 4 to 32 µg/mL

Below: the item to evaluate.
**Q:** Data request, read-out MIC, for CCN1C2CCC1CC([C@@H]1COC(=O)C(C)(C)C(=O)[C@H](C)[C@@H](O[C@@H]3O[C@H](C)C[C@H](N(C)C)[C@H]3O)[C@](C)(OC)C[C@@H](C)CN1C)C2 (some centres unmarked)
**A:** 4 to 32 µg/mL

---

- System: K. pneumoniae MP-546
- procedureText: Broth dilution MIC determination (CLSI), K. pneumoniae MP-546
- Format: cell-based
- experimentalParameters: Klebsiella pneumoniae, MP546; strain MP-546, broth dilution
MIC values by entry

# count of solved cases: 2
compound: CO[C@]1(C)C[C@@H](C)CN(C)[C@H]([C@@H]2CCCN(C(C)C)C2)COC(=O)C(C)(C)C(=O)[C@H](C)[C@H]1O[C@@H]1O[C@H](C)C[C@H](N(C)C)[C@H]1O
measured: 4 to 32 µg/mL
//
compound: CO[C@]1(C)C[C@@H](C)CN(C)[C@@H]([C@H]2CC[C@H](N(C)C(=O)CNC3CC3)CC2)COC(=O)C(C)(C)C(=O)[C@H](C)[C@H]1O[C@@H]1O[C@H](C)C[C@H](N(C)C)[C@H]1O
measured: > 32 µg/mL

Below: the item to evaluate.
**Q:** Data request, read-out MIC, for `CO[C@]1(C)C[C@@H](C)CN(C)[C@H](C2CN(CC3CC3)C2)[C@@H](C)OC(=O)C(C)(C)C(=O)[C@H](C)[C@H]1O[C@@H]1O[C@H](C)C[C@H](N(C)C)[C@H]1O`
**A:** > 32 µg/mL

---

- Tested on: S. aureus MP-12
- procedureText: Broth dilution MIC determination (CLSI), S. aureus MP-12
- Type: cell-based
- experimentalParameters: Staphylococcus aureus, MP12; strain MP-12, broth dilution
MIC values by entry

# count of solved cases: 4
molecule: CO[C@]1(C)C[C@@H](C)CN(C)[C@H](C2CN(CC3COC3)C2)COC(=O)C(C)(C)C(=O)[C@H](C)[C@H]1O[C@@H]1O[C@H](C)C[C@H](N(C)C)[C@H]1O [Compound 91]
assayTarget: S. aureus MP-12
measured: > 32 µg/mL
//
molecule: CO[C@]1(C)C[C@@H](C)CN(C)[C@H](C2CN(CC(C)C)C2)COC(=O)C(C)(C)C(=O)[C@H](C)[C@H]1O[C@@H]1O[C@H](C)C[C@H](N(C)C)[C@H]1O [Compound 112]
assayTarget: S. aureus MP-12
measured: 4 to 32 µg/mL
//
molecule: CO[C@]1(C)C[C@@H](C)CN(C)[C@H](C2CCN(C(C)C)CC2)[C@H](C)OC(=O)C(C)(C)C(=O)[C@H](C)[C@H]1O[C@@H]1O[C@H](C)C[C@H](N(C)C)[C@H]1O [Compound 147]
assayTarget: S. aureus MP-12
measured: > 32 µg/mL
//
molecule: CO[C@]1(C)C[C@@H](C)CN(C)[C@H](C2CN(C(=O)CCCN(C)CC3CC3)C2)COC(=O)C(C)(C)C(=O)[C@H](C)[C@H]1O[C@@H]1O[C@H](C)C[C@H](N(C)C)[C@H]1O [Compound 61]
assayTarget: S. aureus MP-12
measured: > 32 µg/mL

**Q:** Please tell me: MIC of CO[C@]1(C)C[C@@H](C)CN(C)[C@H](C2CN(C(=O)[C@H]3CCN(C)C3)C2)COC(=O)C(C)(C)C(=O)[C@H](C)[C@H]1O[C@@H]1O[C@H](C)C[C@H](N(C)C)[C@H]1O [Compound 168] , system S. aureus MP-12?
**A:** 4 to 32 µg/mL

**Q:** What do you have for CO[C@]1(C)C[C@@H](C)CN(C)[C@@H](C2CCN(C[C@@H](N)CO)CC2)CO[C@@H](O)C(C)(C)C(=O)[C@H](C)[C@H]1O[C@@H]1O[C@H](C)C[C@H](N(C)C)[C@H]1O [Compound 199] ?
**A:** 4 to 32 µg/mL

**Q:** What do you have for CCC[N+]1(C)CC=C([C@H]2[C@@H](C)OC(=O)C(C)(C)C(=O)[C@H](C)[C@@H](O[C@@H]3O[C@H](C)C[C@H](N(C)C)[C@H]3O)[C@](C)(OC)C[C@@H](C)CN2C)CC1 (stereo partly shown) [Compound 4] ?
**A:** > 32 µg/mL

**Q:** What do you have for CO[C@]1(C)C[C@@H](C)CN(C)[C@H](C2CN(C(=O)[C@H]3CCN(CC4CC4)C3)C2)COC(=O)C(C)(C)C(=O)[C@H](C)[C@H]1O[C@@H]1O[C@H](C)C[C@H](N(C)C)[C@H]1O [Compound 126] ?
**A:** 4 to 32 µg/mL

**Q:** What do you have for CO[C@]1(C)C[C@@H](C)CN(C)[C@H](C2CCN(C(=O)CN(C)C)CC2)[C@H](C)OC(=O)C(C)(C)C(=O)[C@H](C)[C@H]1O[C@@H]1O[C@H](C)C[C@H](N(C)C)[C@H]1O [Compound 159] ?
**A:** > 32 µg/mL

**Q:** What do you have for CO[C@]1(C)C[C@@H](C)CN(C)[C@@H](C2(CCN(C)C(C)=O)CC2)COC(=O)C(C)(C)C(=O)[C@H](C)[C@H]1O[C@@H]1O[C@H](C)C[C@H](N(C)C)[C@H]1O [Compound 197] ?
**A:** > 32 µg/mL

**Q:** What do you have for CO[C@]1(C)C[C@@H](C)CN(C)[C@@H]([C@H]2CCCN(C(C)C)C2)COC(=O)C(C)(C)C(=O)[C@H](C)[C@H]1O[C@@H]1O[C@H](C)C[C@H](N(C)C)[C@H]1O [Compound 56] ?
**A:** > 32 µg/mL

**Q:** What do you have for CO[C@]1(C)C[C@@H](C)CN(C)[C@@H]([C@H]2CCN(C(C)C)C2)COC(=O)C(C)(C)C(=O)[C@H](C)[C@H]1O[C@@H]1O[C@H](C)C[C@H](N(C)C)[C@H]1O [Compound 57] ?
**A:** 4 to 32 µg/mL

**Q:** What do you have for CO[C@]1(C)C[C@@H](C)CN(C)[C@H](C2CN(CCC(C)C)C2)COC(=O)C(C)(C)C(=O)[C@H](C)[C@H]1O[C@@H]1O[C@H](C)C[C@H](N(C)C)[C@H]1O [Compound 51] ?
**A:** 4 to 32 µg/mL

**Q:** What do you have for CO[C@]1(C)C[C@@H](C)CN(C)[C@@H]([C@H]2CCCN(C(=O)CN(C)C)C2)COC(=O)C(C)(C)C(=O)[C@H](C)[C@H]1O[C@@H]1O[C@H](C)C[C@H](N(C)C)[C@H]1O [Compound 34] ?
**A:** > 32 µg/mL

**Q:** What do you have for CO[C@]1(C)C[C@@H](C)CN(C)[C@H](C2CC3CCC(C2)N3C(C)C)COC(=O)C(C)(C)C(=O)[C@H](C)[C@H]1O[C@@H]1O[C@H](C)C[C@H](N(C)C)[C@H]1O (stereo partly shown) [Compound 170] ?
**A:** 4 to 32 µg/mL

**Q:** What do you have for CO[C@]1(C)C[C@@H](C)CN(C)[C@@H]([C@H]2CC[C@H](N(C)C)CC2)COC(=O)C(C)(C)C(=O)[C@H](C)[C@H]1O[C@@H]1O[C@H](C)C[C@H](N(C)C)[C@H]1O [Compound 137] ?
**A:** > 32 µg/mL

**Q:** What do you have for CCCN1CCC([C@]2(C)COC(=O)C(C)(C)C(=O)[C@H](C)[C@@H](O[C@@H]3O[C@H](C)C[C@H](N(C)C)[C@H]3O)[C@](C)(OC)C[C@@H](C)CN2C)CC1 [Compound 143] ?
**A:** > 32 µg/mL

**Q:** What do you have for CO[C@]1(C)C[C@@H](C)CN(C)[C@@H]([C@H]2CCN(C)C2)COC(=O)C(C)(C)C(=O)[C@H](C)[C@H]1O[C@@H]1O[C@H](C)C[C@H](N(C)C)[C@H]1O [Compound 48] ?
**A:** 4 to 32 µg/mL

**Q:** What do you have for CCN1C2CCC1CC([C@@H]1COC(=O)C(C)(C)C(=O)[C@H](C)[C@@H](O[C@@H]3O[C@H](C)C[C@H](N(C)C)[C@H]3O)[C@](C)(OC)C[C@@H](C)CN1C)C2 (stereo partly shown) [Compound 15] ?
**A:** 4 to 32 µg/mL
